Assay: protein stability index of a GFP-peptide fusion (yeast GPS) (PSI 1-4); higher = more stable; sorted into four equal gates, so the index is relative within each strain
Condition Description: pdr5∆
Each entry below carries its recorded protein stability index.
Number, no unit, nothing else.

>>> print(df.to_string())
                 seq_string  numeric_value
0  CDLSSKFNKSKAKFTSL [YCS4]           2.79
1  DDSANIVNVNFMKSVIR [DIS3]            3.1
2  IDQVMMSVSDNDQALIK [RET1]           3.06

The measured protein stability index associated with GGKIINKLGNDPSLNLK [BRR2] reads 1.76

The measured protein stability index associated with GLSAREAVKQAAKIIYL [PRE10] reads 2.59

The measured protein stability index associated with HTGKKLMAQIFFGPTYY [RPB2] reads 2.07

The measured protein stability index associated with VVKGRVEKTLLSDVAFY [RPO31] reads 3.14

The measured protein stability index associated with DNGLGPLKYAPHLPFSK [SWI3] reads 3.22

The measured protein stability index associated with RVVVPQALRVLRLKPGR [RPL16B] reads 1.58

The measured protein stability index associated with DFISPELIIDKVTCSSN [MED1] reads 1.75

The measured protein stability index associated with APLVLLSALDHYERTQT [RPN8] reads 2.45

The measured protein stability index associated with TKIDMPIKNRKNDTHYL [BRN1] reads 3.05

The measured protein stability index associated with LIIQKIPSLQNNIEENL [ECM29] reads 2.88

The measured protein stability index associated with NELQEERLKVPILVTLV [POP6] reads 1.99

The measured protein stability index associated with NNSNSNNNSSNEKEQLS [SEC65] reads 2.72

---

Assay: protein stability index of a GFP-peptide fusion (yeast GPS) (PSI 1-4); higher = more stable; sorted into four equal gates, so the index is relative within each strain
Condition Description: ubr1∆
Given measured protein stability index, output Yes if it is greater than or equal to 3 and No if not.

Req: Evaluate VGCKNLERLTLVFCKHI [GRR1] : protein stability index at minimum 3?
Resp: No

Req: Evaluate DETKGFDDNDSGNNYND [MED2] : protein stability index at minimum 3?
Resp: Yes

Req: Evaluate GFDIQKSCEPVSISTSV [SIR4] : protein stability index at minimum 3?
Resp: No

Req: Evaluate SLHSNSFSLTVSKEQFL [YJL039C/NUP192] : protein stability index at minimum 3?
Resp: No

Req: Evaluate NHGGSLGKYDLTVIEKL [SRP68] : protein stability index at minimum 3?
Resp: Yes

Req: Evaluate LMYSITFHHHGRQTVLI [SRB2] : protein stability index at minimum 3?
Resp: Yes

Req: Evaluate DPQQVFDERIKFANQLH [RPN3] : protein stability index at minimum 3?
Resp: No

Req: Evaluate IVEADEKKGIVQASVTS [RET1] : protein stability index at minimum 3?
Resp: No

Req: Evaluate ATTGGLFGSKPQGSTTN [YGR119C/NUP57] : protein stability index at minimum 3?
Resp: Yes

Req: Evaluate FGNSLSNTVNANNYSSN [YDL088C/ASM4] : protein stability index at minimum 3?
Resp: Yes

Req: Evaluate EDETLRRIKEAEENLKK [YIL149C/MLP2] : protein stability index at minimum 3?
Resp: Yes

Req: Evaluate DELILPLPSHALTVQEV [YDL116W/NUP84] : protein stability index at minimum 3?
Resp: No

Req: Evaluate RENMICKIDFQKNFMDQ [RRI2] : protein stability index at minimum 3?
Resp: Yes
